Tested on: SR leukemia
PROTOCOL DETAILS: NCI tumour cell line growth inhibition, 48 h
Reported TGI values for the following compounds.
MEASUREMENT TYPE: TGI

[[record]]
compound = "CC1=NN(c2cccc(Cl)c2)C(=N/c2nc3ccccc3s2)/C1=C\\c1ccc(Cl)cc1"
measurement_type = "TGI"
result = "81 µM"

[[record]]
compound = "Cc1ccc2c(c1)C(=O)N(N(C)C)CC(=O)N2"
measurement_type = "TGI"
result = "> 100 µM"

[[record]]
compound = "CC(=O)OCCCC(NC(=O)OC(C)(C)C)C(=O)NC(CCCOC(C)=O)C(=O)NC(Cc1ccc([N+](=O)[O-])cc1)C(=O)NCC(=O)OCc1ccccc1 (configuration not stated)"
measurement_type = "TGI"
result = "44.6 µM"

[[record]]
compound = "CN(C)CCCNC(=O)c1c(O)c2ccccc2[nH]c1=O"
measurement_type = "TGI"
result = "> 100 µM"

[[record]]
compound = "CC[C@H](CCCC[C@H]1CC[C@@H]2CC(=O)C[C@H]12)OC"
measurement_type = "TGI"
result = "> 100 µM"

[[record]]
compound = "CN(O)C(=O)SCC(NC(=O)CCC(N)C(=O)O)C(=O)NCC(=O)O (configuration not stated)"
measurement_type = "TGI"
result = "> 2 µM"

[[record]]
compound = "CCOc1cccc(/C=N/N=C2\\C(=O)Nc3c(Cl)cc(Cl)cc32)c1O"
measurement_type = "TGI"
result = "> 100 µM"

[[record]]
compound = "CC1(C)CC(C2=NCCO2)CC(C)(C)N1"
measurement_type = "TGI"
result = "> 100 µM"

[[record]]
compound = "Cc1cccc(/C=C/c2c(C(=O)/C=C/c3ccccc3)c(C)nc3ccccc23)c1"
measurement_type = "TGI"
result = "4.94 µM"

[[record]]
compound = "c1cncc(C2(c3cc4ccccc4[nH]3)COCO2)c1 (configuration not stated)"
measurement_type = "TGI"
result = "> 100 µM"

[[record]]
compound = "Clc1nc(Cl)c2ncn(CC3(Cn4cnc5c(Cl)nc(Cl)nc54)COC3)c2n1"
measurement_type = "TGI"
result = "> 100 µM"

[[record]]
compound = "O=c1c2ccccc2nc(-c2cc3c(cc2Cl)Sc2nccn2S3(=O)=O)n1-c1ccccc1"
measurement_type = "TGI"
result = "> 100 µM"

[[record]]
compound = "CN1CCN(C(=S)N(C(=O)c2ccc(Cl)cc2)c2ccccc2)CC1"
measurement_type = "TGI"
result = "> 100 µM"

[[record]]
compound = "N#Cc1ccc(OCc2nc(N)nc(N)c2-c2ccc(Cl)c(Cl)c2)cc1"
measurement_type = "TGI"
result = "66.2 µM"

[[record]]
compound = "COc1ccc(OC)c(-c2nc3n(c2/C=C2/C(=O)Nc4ccccc42)CCS3)c1"
measurement_type = "TGI"
result = "94.4 µM"

[[record]]
compound = "CN(CCO)CC[C@H](CSc1ccccc1)Nc1ccc(S(=O)(=O)NC(=O)c2ccc(N3CCC([C@@H](O)c4ccccc4-c4ccc(Cl)cc4)CC3)cc2)cc1S(=O)(=O)C(F)(F)F"
measurement_type = "TGI"
result = "35.7 µM"

[[record]]
compound = "O=C(c1ccccc1)n1c(Cc2ccccc2)nc2cc(C34CC5CC(CC(C5)C3)C4)ccc21"
measurement_type = "TGI"
result = "> 100 µM"

[[record]]
compound = "c1coc(CNc2ncnc3[nH]ncc23)c1"
measurement_type = "TGI"
result = "> 100 µM"

[[record]]
compound = "BrC1=CCC23CC=C(Br)[C@H]4CC2(COC3)C[C@@H]1O4 (some centres not stated)"
measurement_type = "TGI"
result = "> 100 µM"

[[record]]
compound = "CSC(=Nc1nnc(-c2ccc([N+](=O)[O-])cc2)s1)SC"
measurement_type = "TGI"
result = "> 100 µM"

[[record]]
compound = "COc1ccc(-c2nn(-c3cccc(Cl)c3)cc2-c2cc(-c3cccs3)[nH]c(=S)n2)cc1"
measurement_type = "TGI"
result = "31.9 µM"

[[record]]
compound = "COC1=C(N)C(=O)c2nc(C)ccc2C1=O"
measurement_type = "TGI"
result = "> 24 µM"

[[record]]
compound = "Cc1cc2c(cc1C)OC(=O)CC2"
measurement_type = "TGI"
result = "> 100 µM"

[[record]]
compound = "Cc1c2ccncc2c(C)c2c1[nH]c1ccc(OC(C)C)cc12"
measurement_type = "TGI"
result = "3.73 µM"

[[record]]
compound = "N=C1C(c2nc3ccccc3s2)=C(O)CN1c1ccc(F)c(Cl)c1"
measurement_type = "TGI"
result = "6.33 µM"

[[record]]
compound = "O=c1ccn2n1Cc1ccccc1C2"
measurement_type = "TGI"
result = "> 100 µM"

[[record]]
compound = "O=C(CCCCCCNC(=O)c1cnc(N(c2ccccc2)c2ccccc2)nc1)NO"
measurement_type = "TGI"
result = "> 100 µM"

[[record]]
compound = "Cc1ccc(NCC(=O)N2CC(=O)Nc3ccccc32)c(C)c1"
measurement_type = "TGI"
result = "> 100 µM"

[[record]]
compound = "CC(C)=CC1C[C@H](C2CC=C3C2(C)CCC2[C@@]3(C)C(=O)CC3[C@]2(C)C=CC(=O)[C@]3(C)CO)CO1 (some centres not stated)"
measurement_type = "TGI"
result = "10.8 µM"

[[record]]
compound = "CCN(Cc1cc(Nc2nc(C)cn3c(-c4cn[nH]c4)cnc23)sn1)C(C)(C)CO"
measurement_type = "TGI"
result = "1.64 µM"

[[record]]
compound = "Cc1cc(CC(=O)NCCO)n(CCO)c(=O)c1"
measurement_type = "TGI"
result = "> 100 µM"

[[record]]
compound = "Cc1cc(C)n(-c2nsc3ccccc23)n1"
measurement_type = "TGI"
result = "> 100 µM"

[[record]]
compound = "O=C(O)c1n[nH][nH]c1=S"
measurement_type = "TGI"
result = "> 100 µM"

[[record]]
compound = "Oc1c(-c2nnc(-c3ccccc3Cl)o2)sc2nnc(-c3ccccc3)c(-c3ccccc3)c12"
measurement_type = "TGI"
result = "> 100 µM"

[[record]]
compound = "CC(=O)OCC1=C(C(=O)O)N2C(=O)C(NC(=O)CSc3ccncc3)C2SC1 (configuration not stated)"
measurement_type = "TGI"
result = "> 100 µM"

[[record]]
compound = "CCN(Cc1ccc(Cl)cc1)c1ccc(CO)c(Cl)c1"
measurement_type = "TGI"
result = "51.5 µM"

[[record]]
compound = "CC(=O)N1C(OC(C)C)CC(C)N1c1ccccc1 (configuration not stated)"
measurement_type = "TGI"
result = "> 10 µM"


Origin of the recorded values: PubChem BioAssay (NCI)
